// provenance: ChEMBL document CHEMBL3861966

Known pIC50 of a selection of compounds
- TEST_PROTOCOL: Cytotoxicity against human MDA-MB-231 cells assessed as decrease in cell viability after 72 hrs by cell titer 96 one solution assay
- Type: functional, cell-based
- CONDITION_NOTES: MDA-MB-231, 72 h
pIC50: −log10 of the molar value.

COc1cc2c(c3occc13)[C@H](O)[C@H]1OC(=O)[C@]3(C)[C@H]1[C@]21CC[C@]3(O)OC1 :: < 4.70

INPUT: Returns the measured pIC50 for the input compound. Input: `COc1cc2c(c3occc13)[C@@H](O)[C@@]1(O)OC[C@@]23CCC(=O)[C@@H](C)[C@@H]31`
OUTPUT: < 4.70

INPUT: Returns the measured pIC50 for the input compound. Input: `COc1cc2c(c3occc13)[C@H]1OC3O[C@@]4(O)CC[C@@]23[C@H]2[C@@H]1OC(=O)[C@]24C`
OUTPUT: < 4.70

INPUT: Returns the measured pIC50 for the input compound. Input: `C[C@]12C(=O)O[C@@H]3[C@@H](O)[C@H]4c5occc5C(=O)C[C@H]4[C@]4(CO[C@@]1(O)[C@@H](O)C4)[C@@H]32`
OUTPUT: 5.12

INPUT: Returns the measured pIC50 for the input compound. Input: `C[C@]12C(=O)O[C@@H]3C[C@H]4C5=C(CC[C@H]4[C@]4(CO[C@@]1(O)[C@@H](O)C4)[C@@H]32)C(=O)CO5`
OUTPUT: 5.55

INPUT: Returns the measured pIC50 for the input compound. Input: `COc1cc2c(c(O)c1C=O)C[C@H]1OC(=O)[C@]3(C)[C@H]1[C@]21CC[C@]3(O)OC1`
OUTPUT: < 4.70
